Biological target: AChE isolated from electric eel (EeAChE) (Electrophorus electricus, UniProt O42275)
Sequence (O42275 24-633): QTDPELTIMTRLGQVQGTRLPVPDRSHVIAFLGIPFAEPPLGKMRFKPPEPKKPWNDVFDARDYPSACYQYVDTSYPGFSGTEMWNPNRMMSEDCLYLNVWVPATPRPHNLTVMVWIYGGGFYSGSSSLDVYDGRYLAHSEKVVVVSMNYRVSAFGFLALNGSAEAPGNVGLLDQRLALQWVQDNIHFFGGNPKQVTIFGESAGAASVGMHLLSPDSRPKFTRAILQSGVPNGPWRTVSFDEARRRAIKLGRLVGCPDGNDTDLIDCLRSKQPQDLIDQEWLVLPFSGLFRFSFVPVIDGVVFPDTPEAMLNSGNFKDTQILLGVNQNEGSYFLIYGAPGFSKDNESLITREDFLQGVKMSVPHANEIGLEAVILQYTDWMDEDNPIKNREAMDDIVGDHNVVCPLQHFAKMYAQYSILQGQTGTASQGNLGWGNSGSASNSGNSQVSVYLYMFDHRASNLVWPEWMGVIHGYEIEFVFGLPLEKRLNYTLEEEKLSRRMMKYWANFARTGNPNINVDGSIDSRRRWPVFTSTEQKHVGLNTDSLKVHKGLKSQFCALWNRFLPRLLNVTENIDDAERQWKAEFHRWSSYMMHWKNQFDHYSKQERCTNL
Test: biochemical
Details: SI = ratio of IC50 for BuChE/IC50 for AChE; >1 means stronger inhibition of AChE
We use 3 as the dividing line for Selectivity BuChE/AChE: on or above the line is Satisfied, below is Not satisfied.

Examples from the recorded data:
>  <Molecule>
O=C(N/N=C/c1cccc(O)c1)c1ccc(C(F)(F)F)cc1

>  <Measured Target>
AChE isolated from electric eel (EeAChE) (Electrophorus electricus, UniProt O42275)

>  <Discrete Label>
Satisfied

$$$$
>  <Molecule>
CC12CCC(CC1=NNC(=O)c1ccc(C(F)(F)F)cc1)C2(C)C (stereo not drawn)

>  <Measured Target>
AChE isolated from electric eel (EeAChE) (Electrophorus electricus, UniProt O42275)

>  <Discrete Label>
Not satisfied

$$$$
>  <Molecule>
O=C(NN=C1CCCCC1)c1ccc(C(F)(F)F)cc1

>  <Measured Target>
AChE isolated from electric eel (EeAChE) (Electrophorus electricus, UniProt O42275)

>  <Discrete Label>
Not satisfied

$$$$

-- ask Please indicate if the recorded Selectivity BuChE/AChE for O=C(N/N=C/c1ccc(O)cc1)c1ccc(C(F)(F)F)cc1 meets or exceeds 3.
-- reply Not satisfied

-- ask # repeat for O=C(NN=Cc1cccc([N+](=O)[O-])c1)c1ccc(C(F)(F)F)cc1
-- reply Not satisfied

-- ask # repeat for O=C(N/N=C/c1ccccc1O)c1ccc(C(F)(F)F)cc1
-- reply Satisfied

-- ask # repeat for O=C(N/N=C/c1ccc([N+](=O)[O-])cc1)c1ccc(C(F)(F)F)cc1
-- reply Satisfied

-- ask # repeat for O=C(NN=C1CCCC1)c1ccc(C(F)(F)F)cc1
-- reply Not satisfied

-- ask # repeat for O=C(NN=Cc1ccccc1Br)c1ccc(C(F)(F)F)cc1
-- reply Not satisfied

-- ask # repeat for Cc1ccc(/C=N/NC(=O)c2ccc(C(F)(F)F)cc2)cc1
-- reply Not satisfied

-- ask # repeat for O=C(N/N=C/c1ccc(Cl)cc1)c1ccc(C(F)(F)F)cc1
-- reply Not satisfied

-- ask # repeat for O=C(N/N=C/c1ccc(Br)cc1)c1ccc(C(F)(F)F)cc1
-- reply Satisfied

-- ask # repeat for O=C(NN=Cc1ccccc1C(F)(F)F)c1ccc(C(F)(F)F)cc1
-- reply Not satisfied

-- ask # repeat for O=C(N/N=C/c1cc(Cl)ccc1O)c1ccc(C(F)(F)F)cc1
-- reply Not satisfied

-- ask # repeat for Cc1ccc(C(=O)NN=Cc2ccc(C(F)(F)F)cc2)cc1
-- reply Satisfied

-- ask # repeat for O=C(NN=Cc1ccccc1[N+](=O)[O-])c1ccc(C(F)(F)F)cc1
-- reply Not satisfied

Just for reference, paper PMC7918878 is where these values come from.
